System: recombinant MiOMTS
Test: In vitro enzymatic assay of recombinant MiOMTS with candidate substrates and SAM as methyl group donor
Type: biochemical, Mangifera indica
Settings: 0.2 mM substrate, 0.01 mM SAM, 30° C. for 30 min; products identified by UHPLC-Orbitrap MS
From the text: The complete ORF of MiOMTS cDNA was cloned in pGEX-4T vector and the protein was expressed as GST-tag fusion protein in E. coli BL21 (DE3) cells. The protein was purified using GST affinity chromatography and released from the tag using thrombin. […] The methylation products of these substrates upon MiOMTS enzymatic reaction were identified and analysed on high resolution mass spectrometer. […]
Outcome Measure: use of substrate as methyl group acceptor (methylation) by MiOMTS

1) O=C(O)/C=C/c1ccc(O)c(O)c1 [caffeic acid] ... could not use
2) Oc1ccccc1O [catechol] ... could not use
